# Target system: Serine/threonine-protein kinase Chk1 (Homo sapiens, UniProt O14757)
# Sequence (O14757 whole entry): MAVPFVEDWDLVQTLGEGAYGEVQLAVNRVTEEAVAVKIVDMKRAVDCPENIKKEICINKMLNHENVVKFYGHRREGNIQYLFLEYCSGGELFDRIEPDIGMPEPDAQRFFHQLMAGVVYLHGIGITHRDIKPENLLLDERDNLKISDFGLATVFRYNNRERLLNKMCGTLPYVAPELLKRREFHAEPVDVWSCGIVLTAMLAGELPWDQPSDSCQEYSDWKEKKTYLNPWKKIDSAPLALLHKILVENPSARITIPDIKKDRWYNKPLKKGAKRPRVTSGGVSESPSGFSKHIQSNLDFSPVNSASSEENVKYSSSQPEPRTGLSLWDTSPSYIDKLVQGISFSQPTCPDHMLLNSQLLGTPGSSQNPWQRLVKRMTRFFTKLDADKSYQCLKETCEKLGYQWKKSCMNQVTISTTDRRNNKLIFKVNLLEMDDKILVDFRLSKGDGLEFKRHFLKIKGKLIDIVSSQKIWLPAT
Reported property: IC50 (nM)

>>> result_value("CCOC(=O)c1cc2c(c3c1[nH]c1ccccc13)C(=O)N(CO)C2=O")
210

====

Recorded inhibition values for a group of compounds are listed next.
# Target system: Serine/threonine-protein kinase Chk1 (Homo sapiens)
# Protocol details: Inhibition of human Chk1 at 10 uM
Reported property: inhibition

>>> result_value("CCOC(=O)c1cc2c(c3[nH]c4ccccc4c13)C(=O)NC2=O")
"45.3%"
>>> result_value("CCOC(=O)c1cc2c(c3c1[nH]c1ccccc13)C(=O)NC2=O")
"71.7%"
>>> result_value("O=C1NC(=O)c2c1c1c(c3c2[nH]c2ccccc23)CNC1=O")
"71.7%"
>>> result_value("CCOC(=O)c1cc2c(c3c1[nH]c1ccccc13)C(=O)N(CO)C2=O")
"72.4%"
>>> result_value("O=C1NC(=O)C2C1c1[nH]c3ccccc3c1C1C(=O)OC(=O)C12 (configuration not stated)")
"10.6%"
>>> result_value("O=C1NC(=O)c2c1cc(O)c1c2[nH]c2ccccc21")
"11%"
>>> result_value("O=C1NC(=O)c2c1c1c(c3c2[nH]c2ccccc23)C(=O)NC1")
"85.4%"
